- test.system: Neuropilin-1 (Homo sapiens) (UniProt O14786)
- Sequence (O14786 whole entry, looked up): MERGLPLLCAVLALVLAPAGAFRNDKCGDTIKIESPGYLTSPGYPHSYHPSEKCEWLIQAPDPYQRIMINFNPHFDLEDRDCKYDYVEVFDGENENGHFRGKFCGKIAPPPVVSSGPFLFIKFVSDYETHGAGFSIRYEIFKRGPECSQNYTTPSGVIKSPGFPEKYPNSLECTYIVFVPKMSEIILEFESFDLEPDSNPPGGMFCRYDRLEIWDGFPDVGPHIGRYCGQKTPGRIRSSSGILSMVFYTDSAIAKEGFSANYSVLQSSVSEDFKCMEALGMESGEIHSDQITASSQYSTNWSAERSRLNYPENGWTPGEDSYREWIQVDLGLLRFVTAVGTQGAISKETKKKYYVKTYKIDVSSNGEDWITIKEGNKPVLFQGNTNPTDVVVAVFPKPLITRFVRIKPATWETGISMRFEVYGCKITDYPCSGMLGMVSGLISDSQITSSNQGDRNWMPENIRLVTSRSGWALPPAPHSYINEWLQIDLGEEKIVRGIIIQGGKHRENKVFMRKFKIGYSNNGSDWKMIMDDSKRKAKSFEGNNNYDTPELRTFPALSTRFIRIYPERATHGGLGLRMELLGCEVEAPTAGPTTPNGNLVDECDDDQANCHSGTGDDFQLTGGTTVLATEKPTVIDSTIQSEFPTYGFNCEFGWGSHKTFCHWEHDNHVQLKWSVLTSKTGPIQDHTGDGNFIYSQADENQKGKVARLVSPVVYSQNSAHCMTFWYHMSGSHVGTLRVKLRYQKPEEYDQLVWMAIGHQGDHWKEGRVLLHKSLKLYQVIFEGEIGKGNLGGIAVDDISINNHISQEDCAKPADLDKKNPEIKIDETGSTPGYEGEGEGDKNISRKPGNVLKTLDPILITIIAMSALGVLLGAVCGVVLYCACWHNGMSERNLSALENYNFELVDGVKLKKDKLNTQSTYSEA
- assay.explanation: NRP-1/CendR peptide interaction modulators – biochemical, fluorescence polarization, uHTS, primary screen (AID 602438)
- condition.notes: FAM-RPARPAR peptide binding to NRP-1, fluorescence polarization; at 25 µM; hits give high values
Hit rate of the full screen: of about 360,000 compounds, about 3,100 (0.86%) were called active. Only a selection was taken, and actives are over-represented in it overall.
recorded.endpoint: inhibition (%)
Write the value in % as a bare number.

Worked examples follow.
- molecule: "CC(=O)Nc1cccc(NC(=O)CSc2nccn2Cc2ccc(F)cc2)c1"
  inhibition [%]: 0.6
- molecule: "O=C(O)CSCc1ccc(C(=O)O)o1"
  inhibition [%]: -7.1

Ask: Item "CC1CCN(S(=O)(=O)c2ccc(S(=O)(=O)NCc3ccco3)cc2)CC1" with Neuropilin-1 (Homo sapiens) (UniProt O14786) - inhibition?
Reply: 8.7

Ask: Same thing, different molecule: "N#Cc1cccc(CN2CCC(=O)N(CCO)CC2)c1"
Reply: 21.1

Ask: Same thing, different molecule: "O=C(CSc1nccn1-c1cccc(F)c1)NC1CCCC1"
Reply: -2.9

Ask: Same thing, different molecule: CC1CC(C)CN(S(=O)(=O)c2ccc(C(=O)NN3CCOCC3)cc2)C1 (configuration not stated)
Reply: -2.9

Ask: Same thing, different molecule: CC(=O)N/C(=C\c1ccccc1)C(=O)OC(C)C(=O)N(C)c1ccccc1 (configuration not stated)
Reply: 6.8
